Cited source for all entries: patent EP0369733A2

Experiment description: physchem
Test conditions: 0.1 m tetramethylammonium chloride
criterion met means recorded pKa is 8 or above; criterion not met means it is below 8.

// known answers, use as guide
CC(=O)Nc1ccc(N2CCOCCOCCOCCOCC2)c2ncccc12    criterion not met
Nc1ccc(N2CCOCCOCCOCCOCC2)c(C(=O)O)c1    criterion met
CC(=O)Nc1ccc(N2CCOCCOCCN(c3ccc(NC(C)=O)c4ccc(C)nc34)CCOCC2)c2nc(C)ccc12    criterion not met

Kindly consider the entry below.
Ask: Is the recorded value of pKa equal to or greater than 8 for this compound? `COc1cc2cc(-c3ncc(C(=O)O)o3)oc2cc1N1CCOCCOCCN(c2cc3oc(-c4ncc(C(=O)O)o4)cc3cc2OC)CCOCC1`
Reply: criterion not met
